Where do these numbers come from? They come from patent EP3256120B1.

- experimental-system: β5i subunit of human immunoproteasome (Homo sapiens)
- Construct: purchased Boston Biochem, Inc., Cambridge, MA, USA
- test-method-notes: Preliminary evaluation of inhibition of the β5i subunit (residual activity, Suc-LLVY-AMC fluorescence)
- Assay type: biochemical
- run-conditions: test compound 10 µM, 30 min preincubation at 37 °C, Suc-LLVY-AMC 25 µM, immunoproteasome 0.25 µg/mL
parameter: RA (%)
The reply should contain only the number, in %.

# molecule, RA (%)
records = [
    ("COc1ccc(-c2coc3cc4oc(=O)c(CCC(=O)O)c(C)c4cc23)cc1", 84),
    ("Cc1cc(-c2coc3cc4oc(=O)c(CCC(=O)O)c(C)c4cc23)c(C)o1", 100),
    ("Cc1c(C(=O)O)c(=O)oc2cc3occ(-c4ccccc4)c3cc12", 82),
    ("Cc1c(N)c(=O)oc2cc3occ(-c4ccccc4)c3cc12", 88),
    ("Cc1c(CCC(=O)O)c(=O)oc2cc3occ(C4CCCCC4)c3cc12", 102),
    ("Cc1c(CCC(=O)O)c(=O)oc2cc3occ(C(C)(C)C)c3cc12 [n=2, 1R=t-Bu]", 83),
    ("Cc1coc2cc3oc(=O)c(CC(=O)O)c(C)c3cc12 [n=1, 1R=Me]", 88),
    ("Cc1c(CC(=O)O)c(=O)oc2cc3occ(C(C)(C)C)c3cc12 [n=1, 1R=t-Bu]", 85),
]

Please look at the following molecule next.
Respond only with RA (%) recorded for Cc1coc2cc3oc(=O)c(CCC(=O)O)c(C)c3cc12 [n=2, 1R=Me]
94
